Cited source for all entries: PubChem BioAssay

# ASSAY TEXT: binders of probe aFGF10 on microarray, primary screen, stem cell growth factor project, biochemical, small-molecule microarray, fluorescence 635/667 (AID 1071);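 note: score merges 667 nm spot intensity and signal to noise from triplicate slides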
# ASSAY SETUP: higher = more signal

{"columns": ["MOLECULE", "composite z-score"],
 "data": [
  ["O=C1c2ccccc2[C@@]2(Cc3ccccc3N(Cc3ccccc3)C2=O)[C@H](c2ccc(CO)cc2)N1Cc1ccccc1", -0.221],
  ["O=C1N(CCS(=O)(=O)c2ccccc2)c2ccccc2[C@@H]2OC(c3ccc(OCCCO)cc3)=N[C@]12CCS(=O)(=O)c1ccccc1", 0.291],
  ["COCCOC(=O)N1C(=O)[C@@]2(c3cc(C#CC4(O)CCCCCC4)ccc31)[C@H](c1ccccc1OCCO)N1[C@H](c3ccccc3)[C@H](c3ccccc3)OC(=O)[C@H]1[C@@H]2C(=O)N1CCCCCCC1", 0.256]
]}

----------
# ASSAY TARGET: Neurogenic locus notch homolog protein 3 (Homo sapiens)
# ASSAY TEXT: NOTCH3 binders on small-molecule microarray, primary screen, biochemical, 635/667 nm fluorescence (AID 1096)
# ASSAY SETUP: NOTCH3 binding, 635 nm fluorescence, higher = more signal
If the reported composite z-score equals or exceeds 0.002, assign MET. If not, assign NOT MET.

{"columns": ["COMPOUND", "CLASS ASSIGNMENT"],
 "data": [
  ["C=CCC(OC(C)=O)[C@@H]1[C@@H](N(Cc2cc3ccccc3o2)C(=O)Cc2ccc(OC)cc2)c2cc(OCCCO)ccc2N1C(=O)Cc1ccc(OC)cc1 (stereo partly specified)", "NOT MET"],
  ["COCCOC(=O)N1C(=O)[C@@]2(c3cc(C#CC4(O)CCCCCC4)ccc31)[C@H](c1ccc(OCCO)cc1)N1[C@H](c3ccccc3)[C@H](c3ccccc3)OC(=O)[C@H]1[C@@H]2C(N)=O", "MET"],
  ["CC(=O)NCCCC[C@@H]1NC(=O)[C@H]2C[C@@H](C(=O)NCCCCCC[N+](C)(C)C)[C@@H](c3ccc(O)cc3)N2C1=O", "MET"],
  ["CO[C@H]1O[C@H](CO)[C@@H](OC(=O)Nc2ccc3c(c2)OCO3)[C@@H]2OC(=O)[C@@H](Cc3ccccc3)C/C=C/C[C@H](Cc3ccccc3)C(=O)O[C@@H]12", "MET"],
  ["Cc1ccc(F)cc1S(=O)(=O)N[C@@H]1CCN(Cc2ccc3c(c2)OCO3)C1", "NOT MET"]
]}

----------
# ASSAY TEXT: MM1S cell viability effects, profiling panel, calcein-AM fluorescence, 48 h, basal (AID 1165);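 note: viability of MM1S multiple myeloma cells under basal unstimulated conditions; test concentration not given here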
# ASSAY SETUP: higher = more signal
Catalogue of z-score values

{"columns": ["MOLECULE", "z-score"],
 "data": [
  ["C=CCC(OC(C)=O)[C@@H]1[C@@H](N(Cc2ccc(-c3cccc(C(F)(F)F)c3)o2)C(=O)Cc2ccc(F)cc2)c2cc(OCCCO)ccc2N1C(=O)c1ccc2ccccc2n1 (some centres undefined)", -0.911],
  ["Cc1ccc(S[C@]2(C(=O)NC3CC3)CC(=O)N(Cc3cc(C(F)(F)F)cc(C(F)(F)F)c3)[C@@H]2c2ccc(CO)cc2I)cc1", -2.53],
  ["C[N+](C)(C)CCCCCCNC(=O)[C@H]1C[C@H]2C(=O)NCC(=O)N2[C@H]1c1cccc(OCCO)c1", 0.112],
  ["O=C1N(CCS(=O)(=O)c2ccccc2)c2ccccc2[C@@H]2OC(c3ccc(OCCCO)cc3)=N[C@]12CCS(=O)(=O)c1ccccc1", -1.68],
  ["C=CC[C@@]1(C(=O)N(C)C)N=C(c2ccc(OCCCO)cc2)O[C@@H]1c1ccccc1", -1.01],
  ["CC(C)C(=C=CC[C@@H](O)c1cccc(OCCO)c1)CCO", 0.753],
  ["CN1C(=O)C2C=CC(C(O)c3ccc(-c4ccccc4)s3)N(Nc3ccccc3)C2C1=O (centres undefined)", -0.467],
  ["O=C1O[C@H](c2ccccc2)[C@H](c2ccccc2)N2[C@H]1[C@@H](C(=O)NC[C@H](O)c1ccccc1)[C@]1(C(=O)Nc3ccc(C#CCCO)cc31)[C@H]2c1ccccc1OCCO", -0.751],
  ["CC(C)CNC(=O)[C@@H]1c2ccccc2C(=O)N(Cc2ccccc2Cl)[C@H]1c1ccc(CO)cc1", -0.242],
  ["CC(C)CNC(=O)[C@@]1(C)c2ccccc2C(=O)N(Cc2cc(F)cc(C(F)(F)F)c2)[C@H]1c1ccc(CO)cc1", 0.545],
  ["C[C@H]1C2[C@H](Cc3ccccc3)NC(=O)[C@]23C(=O)NCC(=O)N2CCC[C@H]2C(=O)NC/C=C\\C/C=C/C3[C@@H]2O[C@]12C (some centres undefined)", 0.163],
  ["COc1ccc(CCNC(=O)[C@@]2(Sc3ccc(C)cc3)CC(=O)N(C(C)C)[C@@H]2c2ccc(CO)cc2)cc1", -0.169],
  ["C=CCC(OC(C)=O)[C@@H]1[C@@H](N(Cc2ccc(-c3cccc(C(F)(F)F)c3)o2)C(=O)Cc2ccc(F)cc2)c2cc(OCCCO)ccc2N1C(=O)c1ccc2ccccc2c1 (some centres undefined)", 0.353],
  ["COc1ccc([Si](C)(C)[C@H]2[C@H](CCO)O[C@@]3(C(=O)N(Cc4ccccc4)c4ccc(N(C=O)c5ccccc5)cc43)[C@@H]2C)cc1", -0.622]
]}

----------
# ASSAY TEXT: compound binding in COS7 lysate, probe aLAP1, primary screen, cell lysate, small-molecule microarray (AID 1124);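 note: lysate comes from COS7 cells expressing LAP1 and is applied at 0.3 µg/mL; score merges spot fluorescence near 667 nm with signal-to-noise over triplicate slides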
# ASSAY SETUP: probe aLAP1, fluorescence, higher = more signal

{"columns": ["MOLECULE", "composite z-score"],
 "data": [
  ["C[N+](C)(C)CCCCCCNC(=O)[C@@H]1C[C@@H]2C(=O)N[C@@H](Cc3ccccc3)C(=O)N2[C@@H]1c1ccc(O)cc1", 0.385],
  ["COc1ccc([Si](C)(C)[C@@H]2[C@@H](CCO)O[C@]3(C(=O)N(Cc4ccccc4)c4ccc(N5C(=O)c6ccccc6Oc6ccccc65)cc43)[C@H]2C)cc1", -0.0345],
  ["CCCCC(=C=CC[C@H](O)c1ccc(OCCO)cc1)C[C@H](O)c1ccccn1", 0.967],
  ["CC(C)C(=C=CC[C@@H](O)c1cccc(OCCO)c1)CCO", 0.0157],
  ["C=CCC(OC(C)=O)[C@@H]1[C@@H](N(Cc2cccc3ccccc23)C(=O)c2ccc(-c3ccccc3)cc2)c2cc(OCCCO)ccc2N1C(=O)c1ccc2ccccc2n1 (stereo not given in full)", 0.649],
  ["COC(=O)[C@@]1(Cc2ccccc2)[C@H]2c3cc(C(=O)N4CCCC4)n(Cc4ccc(C(F)(F)F)nc4)c3C[C@H]2CN1C(=O)c1ccccc1", 0.232],
  ["CO[C@H]1O[C@H](CO)[C@@H](OC(=O)Nc2ccc(C(F)(F)F)cc2)[C@H](OC(=O)Nc2ccccc2-c2ccccc2)[C@H]1OC(=O)Nc1ccccc1-c1ccccc1", -0.244],
  ["CC1CC/C=C\\[C@H]2OC34C=CCN(c5ccc(Cl)cc5)C(=O)[C@H]3N(CCCO)C(=O)[C@]4(C)C2C(=O)O1 (stereo not given in full)", 0.569],
  ["CC(C)(C)OC(=O)CC[C@]1(C(N)=O)N=C(c2ccc(OCCCO)cc2)O[C@H]1c1ccccc1CN=[N+]=[N-]", 0.666],
  ["NC(=O)[C@@]1(CCS(=O)(=O)c2ccccc2)COC(c2ccc(OCCCO)cc2)=N1", -0.84],
  ["NCCCC[C@@H]1NC(=O)[C@H]2C[C@@H](C(=O)NCc3ccc(F)cc3)[C@@H](c3cccc(OCCO)c3)N2C1=O", 0.251],
  ["C=C(COC)/C(=C/C[C@H](OC(=O)c1ccncc1)c1ccc(OCCO)cc1)c1cc(C(=O)OC)ccc1OC", 0.84],
  ["CC(=O)NCCCC[C@@H]1NC(=O)[C@@H]2C[C@H](C(=O)NCCCCCC[N+](C)(C)C)[C@H](c3ccc(O)cc3)N2C1=O", -0.414],
  ["CC(C)CNC(=O)[C@@H]1c2ccccc2C(=O)N(Cc2ccccc2Cl)[C@H]1c1ccc(CO)cc1", 0.397],
  ["NC(=O)N1C(=O)C2C(C1=O)C1C=C(CCCO)C2C(c2ccc(CN3CCCC3)cc2)N1Cc1cccc(OC(F)(F)F)c1 (stereo not given)", 0.0715]
]}

----------
# ASSAY TEXT: yeast growth modulation, basal conditions, primary screen, YJM789 clinical isolate, OD600, 24 h (AID 1089);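 note: growth of clinical yeast isolate S. cerevisiae YJM 789 seeded 1000 cells per well; test concentration not given here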
# ASSAY SETUP: S. cerevisiae YJM789 growth, higher = more signal, called active from +8 up or from −8 down
If the reported z-score equals or exceeds -0.09, assign 1. If not, assign 0.

{"columns": ["MOLECULE", "CLASS ASSIGNMENT"],
 "data": [
  ["COC(=O)[C@@]1(Cc2ccc(F)cc2)[C@H]2c3cc(C(=O)N(C)C)n(CCN4CCOCC4)c3C[C@H]2CN1C(=O)c1ccccc1", 1],
  ["COCCOC(=O)N1C(=O)[C@@]2(c3cc(C#CC4(O)CCCCCC4)ccc31)[C@H](c1ccc(OCCO)cc1)N1[C@H](c3ccccc3)[C@H](c3ccccc3)OC(=O)[C@H]1[C@@H]2C(=O)N1CCCCCCC1", 1],
  ["C=C(C(=O)CC[C@@H](OC(C)=O)c1cccc(OCCO)c1)C(C)C", 1],
  ["C[N+](C)(C)CCCC[C@@H]1NC(=O)[C@H]2C[C@@H](C(=O)NCCCCCNC(=O)CS)[C@@H](c3ccc(O)cc3)N2C1=O", 0],
  ["CN(C)CCCC[C@@H]1NC(=O)[C@H]2C[C@@H](C(=O)NCc3ccc(F)cc3)[C@@H](c3ccc(O)cc3)N2C1=O", 0],
  ["COC(=O)[C@@H]1N=C(c2ccc(OCCCO)cc2)O[C@@H]1c1ccccc1CN=[N+]=[N-]", 1]
]}
